assay: Plasma concentration in Sprague-Dawley rat at 0.5 mg/kg/day, sc administered via infusion measured after 6 hrs post dose by LC-MS/MS analysis; format: ADME, organism-based
Value Type: concentration at 6 h (nM)
Quick note: give the figure in nM, leave out the unit.

Exam item: Looking for the measured concentration at 6 h of `COc1cccc(C(=O)N[C@H]2C[C@@](N)(C(=O)O)[C@@H]3[C@@H](C(=O)O)[C@@H]32)c1` , can you help?
Marked response: 156

###

assay: Plasma concentration in Sprague-Dawley rat at 1.5 mg/kg/day, sc administered via infusion measured after 48 hrs post dose by LC-MS/MS analysis; format: ADME, organism-based
Value Type: concentration at 48 h (nM)
Supply the numeric figure in nM, leaving out any unit text.

Exam item: Consider the molecule `COc1cccc(C(=O)N[C@H]2C[C@@](N)(C(=O)O)[C@@H]3[C@@H](C(=O)O)[C@@H]32)c1` and give its measured concentration at 48 h.
Marked response: 224

All figures here come from ChEMBL document CHEMBL4020826.
